Entry source: patent US20150010586A1

assay-target: T1, HLA-A*0101 (human)
T1 construct: whole, on cells; also called A1
protocol: cellular competition assay vs FL-labelled reference peptide on B cells; affinity category (high/good IC50<5 uM, intermediate 5-15 uM, low >15-50 uM)
pIC50: −log10 of the molar value.
Consider the following binders and their measured pIC50 readings.
property: pIC50

* GTAKSVTCTY (also called A1 (117-126); A3 (117-126)) [p53 117-126 GTAKSVTCTY] | 4.82 to 5.30
* YLDDRNTFRH (also called A1 (205-214)) [p53 205-214 YLDDRNTFRH] | 4.82 to 5.30
* CTTIHYNY (also called A1 (229-236)) [p53 229-236 CTTIHYNY] | 4.82 to 5.30
